# target_or_test_system: BRAF V600E (Homo sapiens, UniProt P15056+Q96SW2, V600E)
# Construct: knock-in of the HiBiT tag to the endogenous BRAF V600E locus; host or cells: A375.10 (A375 clonal line, CRISPR HiBiT knock-in at the endogenous BRAF V600E locus)
# Sequence (P15056 whole entry V600E): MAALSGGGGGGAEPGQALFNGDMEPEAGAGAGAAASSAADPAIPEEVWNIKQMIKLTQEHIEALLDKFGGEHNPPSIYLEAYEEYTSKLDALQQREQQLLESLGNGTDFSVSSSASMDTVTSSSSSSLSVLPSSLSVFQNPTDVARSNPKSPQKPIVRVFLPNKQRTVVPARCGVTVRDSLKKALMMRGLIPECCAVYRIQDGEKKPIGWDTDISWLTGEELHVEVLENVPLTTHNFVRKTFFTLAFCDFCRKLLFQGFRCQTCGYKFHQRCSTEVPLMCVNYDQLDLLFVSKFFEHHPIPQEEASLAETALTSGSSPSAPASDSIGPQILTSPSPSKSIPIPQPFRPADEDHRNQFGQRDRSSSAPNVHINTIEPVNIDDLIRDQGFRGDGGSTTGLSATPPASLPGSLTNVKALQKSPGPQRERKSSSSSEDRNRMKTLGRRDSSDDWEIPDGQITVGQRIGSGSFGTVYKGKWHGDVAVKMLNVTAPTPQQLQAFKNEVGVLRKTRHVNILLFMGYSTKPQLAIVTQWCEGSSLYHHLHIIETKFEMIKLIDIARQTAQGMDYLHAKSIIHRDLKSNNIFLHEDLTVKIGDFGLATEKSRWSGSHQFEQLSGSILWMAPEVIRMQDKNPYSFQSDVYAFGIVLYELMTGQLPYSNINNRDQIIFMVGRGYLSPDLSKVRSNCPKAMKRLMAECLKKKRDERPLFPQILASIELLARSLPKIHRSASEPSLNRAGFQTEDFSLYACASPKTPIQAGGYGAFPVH
# Sequence (Q96SW2 whole entry): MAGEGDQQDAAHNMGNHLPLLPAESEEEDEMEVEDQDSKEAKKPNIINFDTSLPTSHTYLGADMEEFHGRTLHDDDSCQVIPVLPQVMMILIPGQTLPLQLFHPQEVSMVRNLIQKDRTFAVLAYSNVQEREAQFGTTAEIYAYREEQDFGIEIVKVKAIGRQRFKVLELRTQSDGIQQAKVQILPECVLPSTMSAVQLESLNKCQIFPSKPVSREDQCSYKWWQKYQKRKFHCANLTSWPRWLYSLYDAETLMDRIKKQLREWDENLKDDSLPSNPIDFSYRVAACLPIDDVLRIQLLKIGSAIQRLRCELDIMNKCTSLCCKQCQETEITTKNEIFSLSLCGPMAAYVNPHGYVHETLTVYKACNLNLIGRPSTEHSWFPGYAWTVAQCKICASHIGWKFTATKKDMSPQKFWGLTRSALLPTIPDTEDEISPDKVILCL
# Sequence (Q16531 whole entry partner): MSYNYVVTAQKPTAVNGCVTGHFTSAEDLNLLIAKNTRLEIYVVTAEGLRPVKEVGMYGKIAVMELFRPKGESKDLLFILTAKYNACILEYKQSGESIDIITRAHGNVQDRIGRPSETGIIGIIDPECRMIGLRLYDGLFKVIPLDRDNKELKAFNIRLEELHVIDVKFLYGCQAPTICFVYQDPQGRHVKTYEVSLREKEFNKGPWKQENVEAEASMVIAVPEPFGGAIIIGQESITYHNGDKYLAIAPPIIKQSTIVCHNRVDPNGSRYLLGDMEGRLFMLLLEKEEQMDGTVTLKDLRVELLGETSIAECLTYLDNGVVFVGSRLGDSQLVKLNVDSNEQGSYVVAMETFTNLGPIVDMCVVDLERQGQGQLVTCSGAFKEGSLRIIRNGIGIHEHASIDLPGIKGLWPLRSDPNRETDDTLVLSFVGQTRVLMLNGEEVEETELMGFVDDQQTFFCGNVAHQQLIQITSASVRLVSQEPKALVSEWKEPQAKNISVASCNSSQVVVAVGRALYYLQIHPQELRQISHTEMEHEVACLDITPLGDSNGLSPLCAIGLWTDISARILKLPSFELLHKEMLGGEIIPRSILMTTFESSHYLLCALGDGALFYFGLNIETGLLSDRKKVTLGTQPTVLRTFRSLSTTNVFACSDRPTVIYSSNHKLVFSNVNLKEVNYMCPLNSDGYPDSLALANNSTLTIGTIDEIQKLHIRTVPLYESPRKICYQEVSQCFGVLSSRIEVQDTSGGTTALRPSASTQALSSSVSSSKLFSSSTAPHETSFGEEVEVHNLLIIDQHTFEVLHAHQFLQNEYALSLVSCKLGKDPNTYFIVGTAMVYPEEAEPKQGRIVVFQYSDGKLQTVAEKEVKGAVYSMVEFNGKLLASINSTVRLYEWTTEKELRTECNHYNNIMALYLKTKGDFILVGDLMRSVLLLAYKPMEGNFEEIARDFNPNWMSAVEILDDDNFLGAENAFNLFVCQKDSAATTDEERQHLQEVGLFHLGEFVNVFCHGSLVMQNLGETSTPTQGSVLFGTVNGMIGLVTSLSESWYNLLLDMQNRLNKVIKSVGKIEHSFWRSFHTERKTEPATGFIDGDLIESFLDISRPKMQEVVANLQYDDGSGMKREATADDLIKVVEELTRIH
# method_summary: BRAF V600E HiBiT Degradation Assay
# Format: cell-based
# condition_label: read-out: HiBiT-Degradation A375.10 BRAF 2 hours DC50; A375.10 cells, BRAF V600E, 2 hours
reported_metric: DC50

* Cn1nc(N2CCC(=O)NC2=O)c2cc(F)c(N3CC4(CC(N5CCC6(CC5)CC(n5cnc7ccc(Oc8c(F)ccc(NS(=O)(=O)C9CC9)c8C#N)cc7c5=O)C6)C4)C3)cc21 [Compound 260] | < 1 µM
* CO[C@H]1CCN(S(=O)(=O)Nc2ccc(F)c(Oc3ccc4ncc(C5CC6(CCN(C7CC8(C7)CN(c7cc9c(cc7F)c(N7CCC(=O)NC7=O)nn9C)C8)CC6)C5)nc4c3)c2C#N)C1 (stereo partly drawn) [Compound 279] | < 1 µM

# input Indicate its recorded DC50; the compound in question is CCN(C)S(=O)(=O)Nc1ccc(F)c(Oc2ccc3ncn([C@H]4COC5(CCN(C6CC7(C6)CN(c6cc8c(cc6F)c(N6CCC(=O)NC6=O)nn8C)C7)CC5)C4)c(=O)c3c2)c1F [Compound 186]
# output < 1 µM
